# MEASUREMENT TARGET: T1, human IL-23R (hIL-23R), custom construct with C-terminal avi and his tags, biotinylated (human, UniProt Q5VWK5 24-355, limits assumed, enzymatically biotinylated via the avi-tag)
# T1 construct: immobilized on streptavidin tips in BLI, labeled target in FACS; also called human IL-23 receptor
# T1 sequence (looked up): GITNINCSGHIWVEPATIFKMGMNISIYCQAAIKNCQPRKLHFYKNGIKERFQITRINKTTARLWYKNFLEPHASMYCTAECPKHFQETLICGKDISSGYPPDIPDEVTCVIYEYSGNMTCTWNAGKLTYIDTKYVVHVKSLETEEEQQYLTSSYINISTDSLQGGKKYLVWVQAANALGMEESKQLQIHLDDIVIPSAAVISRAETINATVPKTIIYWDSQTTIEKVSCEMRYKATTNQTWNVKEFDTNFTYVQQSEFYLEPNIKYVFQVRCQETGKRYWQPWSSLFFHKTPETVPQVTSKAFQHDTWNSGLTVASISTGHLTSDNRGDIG
# PROCEDURE DETAILS: yeast display FACS, SIF incubation then labeled hIL-23R, 5-7 rounds

BINDER	binding result
B0402ID (designed binder) ELWQVFYLLNTCIKRTCDPTCKKLAKALRECLKKGDLKACKEDAYKALDYIRS	binds
B0402SF (designed binder) ELWQIFYLLNTCIKRTGDPTCKKLIKALRECLKKGDAKACSELADKAMKYIMS	binds
B0402SB (designed binder) QLWQIFYLLNTCIKRTGDPTCKKLIKALRECLKKGDAKACDELAKKAVKYIMS	binds

Values compiled from patent US20230357323A1.
